The measurements presented in this section are drawn from paper PMC7728077.

- assay-summary: Analytical RP-HPLC retention time as measure of hydrophobicity
- Type: physicochemical
- conditions: Jupiter 4 µ Proteo 90 Å 250 x 4.60 mm, linear gradient 15-90% B in A in 30 min, 1 ml/min, A 0.1% aqueous TFA, B 80% acetonitrile in water with 0.1% TFA
Square brackets hold non-standard residues; d marks the D form. Peptide text beside a SMILES is read from it. * marks the point of attachment. Palmitoyl = CCCCCCCCCCCCCCCC(=O)*; Orn = NCCC[C@H](N)C(=O)O; Dab = NCC[C@H](N)C(=O)O
experimental-readout: Retention time (used as measure of hydrophobicity) (min)

>>> assay_value("CCCCCCCCCCCCCCCC(=O)NCCC[C@H](NC(=O)[C@@H](N)CCCCN)C(=O)N[C@@H](CCCCN)C(N)=O")
24.204
>>> assay_value("CCCCCCCCCCCCCCCC(=O)NCC[C@H](NC(=O)[C@@H](N)CCCCN)C(=O)N[C@@H](CCCCN)C(N)=O [K(DabC16)K-NH2] (H-Lys-[Dab](Palmitoyl)-Lys-NH2)")
23.974
>>> assay_value("CCCCCCCCCCCCCCCC(=O)NCCC[C@H](NC(=O)[C@H](CCCCN)NC(=O)[C@@H](N)CCCCN)C(=O)N[C@@H](CCCCN)C(=O)N[C@@H](CCCCN)C(N)=O [KK(OC16)KK-NH2] (H-KK[Orn](Palmitoyl)KK-NH2)")
21.328
>>> assay_value("CCCCCCCCCCCCCCCC(=O)NCCCC[C@H](NC(=O)[C@@H](N)CCCCN)C(=O)N[C@@H](CCCCN)C(N)=O")
24.731
>>> assay_value("CCCCCCCCCCCCCCCC(=O)NCCCC[C@H](NC(=O)[C@H](CCCCN)NC(=O)[C@@H](N)CCCCN)C(=O)N[C@@H](CCCCN)C(=O)N[C@@H](CCCCN)C(N)=O [KK(KC16)KK-NH2] (H-KKK(Palmitoyl)KK-NH2)")
21.745
